Can you tell me % Signal Inhibition Rep3 for the items I'm about to list?
Molecular target: T1, canine OX40L, full length membrane form, expressed on HEK293 cells (canine)
T1 chain: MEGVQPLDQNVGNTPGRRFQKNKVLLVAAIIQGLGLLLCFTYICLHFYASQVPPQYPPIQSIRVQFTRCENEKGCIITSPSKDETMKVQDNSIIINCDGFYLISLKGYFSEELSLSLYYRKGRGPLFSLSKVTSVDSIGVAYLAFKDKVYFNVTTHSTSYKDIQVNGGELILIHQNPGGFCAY
Experiment: cell-based or functional assay
Could you give me the number in %? Just the number is fine.

Exercise: State the recorded % Signal Inhibition Rep3 for this entry: PMX034 (antibody, V domains shown, also called PMX34) VH: EVQLVESGGDLVKPGGSLRLSCVASGFTFSNYHMSWVRQAPGKGLQWVAYIVSGGSSTTYADAVKGRFTISRDNAKNTLYLQMTSLRAEDTAVYYCASDLVLLVGGADYWGQGTLVTVSS VL: SYELTQPPSVNVTLRETAHITCGGDSIGSKYVQWIQQNPGQAPVVIIYKDSNRPTGIPERFSGANSGNTATLTISGALAEDEADYYCQVGDSGTKAVFGGGTHLTVL
Solution: 51.6

Exercise: Tell me the measured % Signal Inhibition Rep3 of PMX036 (antibody, V domains shown, also called PMX36) VH: EVQLVESGGDLVKPGGSLRLSCVASGFTFSSYHMSWVRQAPGKGLQWVAYITSGGRTTSYADAVKGRFTISRDNAKNTLYLQMNSLRAEDTAVYYCASDLVLVLGGADYWGQGTLVTVSS VL: SYELTQPPSVNVTLRETAHITCGGDSIGRKYVQWIQQNPGQAPVVIIYKDTNRPTGIPERFSGANSGNTATLTISGALAEDEADYYCQVGDSGTKAVFGGGTHLTVL , please.
Solution: 65.5

Exercise: Reported % Signal Inhibition Rep3 for PMX103 (antibody, V domains shown) VH: EVQLVESGGDLVRPGGSLRLSCVASGFTFSNLHMNWVRQAPGKGLQWVAFINSGGSGTTYADVVRGRFTISRDYAKNTLNLQMTSLRAEDTAVYYCATGSIWTHFDYWGQGTLVTVSS VL: SFVLTQLPSVSVTLRQTARITCGGDSIGSKSVYWYQQKLGQAPVLIIYRDSNRPTGIPERISGASSGNTATLTISGALAEDEADYYCQVWDSSNKAMFGGGTHLTVL : what is it?
Solution: 59.1

Exercise: Give the measured % Signal Inhibition Rep3 of PMX037 (antibody, V domains shown, also called PMX37) VH: EVQLLESGGDLVKPGGSLRLSCVASGFTFSNYEMYWVRQAPGKGLEWVARFYESGSTTYSAEAVPGRFTISRDNAKNMAYLQMNSLRAEDTAVYYCASASSSSWRFDYWGQGTLVTVSS VL: SYVLTQLPSVSVTLGQTARITCGGDSIGSKNVYWFQQKLGQAPVLIIYDDRSRPSGIPERFSGANSGNTATLTISGALAEDEADYYCQVWDSSTGVFGGGTHLTVL .
Solution: 69.8

Exercise: What value of % Signal Inhibition Rep3 has been recorded for this entry: PMX089 (antibody, V domains shown) VH: EVQLVESGGDLVKPGGSLRLSCVASGFTFNNFHMSWVRQAPGKGLQWVAFINSDGGNRNYADVVKGRVTISRDYAKNTLYLQINSLRAEDTAVYYCAGGSIWTHFDYWGQGTLVTVSS VL: SYVLTQLPSMSVTLRQTARITCEGDIIASKRIYWYQQKLGQVPVLLIYADSSRPSGIPERFSGASSGNTATLTISGALAEDEADYYCQVWDNNANSVFGGGTHLTVL
Solution: 49.1

Exercise: Requested field: % Signal Inhibition Rep3. Item: PMX042 (antibody, V domains shown, also called PMX42) VH: EVQLVESGGDLVKPGGSLRLSCVASGFTFSSYHMSWVRQAPGKGLQWVAYITSGGSTTSYADAVKGRFTISRDNAKNTLYLQMDSLRADDTAVYYCASDLVLLLGGADYWGQGTLVTVSS VL: SYELTQPPSVNVTLRETAHITCGGDSIGRKYVQWIQQHPGQAPVVIIYKDYNRPTGIPERFSGANSGNTATLTISGALAEDEADYYCQVGDSGTKAVFGGGTHLTVL
Solution: 71

Exercise: Quick check: % Signal Inhibition Rep3 of PMX110 (antibody, V domains shown) VH: EVQLVESGGDLVRPGGSLRLSCVASGFTFSSYHMSWVRQAPGKGLQWVAFINSGGSSTTYADVVRGRFTISRDYAKNTLYLQMNSLRAEDTAVYYCASGSILTHFDYWGQGTLVTVSS VL: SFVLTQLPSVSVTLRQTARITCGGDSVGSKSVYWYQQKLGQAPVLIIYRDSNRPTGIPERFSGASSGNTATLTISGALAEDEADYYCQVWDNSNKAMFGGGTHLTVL ?
Solution: 13.7

Exercise: # query: % Signal Inhibition Rep3 of entry PMX109 (antibody, V domains shown) VH: EVQLVESGGDLVRPGGSLRLSCVASGFTFTNYHMSWVRQAPGKGLQWVAFINSGGSSTTYTDVVRGRFTISRDYAKNTLYLQMNSLTAEDTAVYYCASGSIWTHFDHWGQGTLVTVSS VL: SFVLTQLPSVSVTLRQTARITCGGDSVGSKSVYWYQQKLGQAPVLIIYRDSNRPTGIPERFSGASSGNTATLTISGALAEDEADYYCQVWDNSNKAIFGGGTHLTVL
Solution: 22.5

Exercise: Would you mind telling me what % Signal Inhibition Rep3 value was observed for PMX057 (antibody, V domains shown, also called PMX57) VH: EVQLVESGGDLVKPEGSLRLSCVVSGFTFNNYGMSWVRQAPGKGLQWVAYISIDGRSTSYTDAVKGRFTISRDNAKNTLYLHINSLRTEDTAVYYCTKLGRGFTFGYWGQGTLVTVSS VL: SYVLTQLPSKNVTLKQPAHITCGGDNIGSKSVHWYQQKLGQAPALIIYYDSSRPTGIPERFSGANSGNTATLTISGALAEDEADYYCQVWDSSVSVFGGGTHLTVL ?
Solution: 73.9

Exercise: # input binder: PMX084 (antibody, V domains shown, also called PMX84) VH: EVQLVESGGDLVKPEGSLRLSCVVSGFTFSNYDMSWVRQAPGKGLQWVAFISNDGRITGYTDAVEGRFTISRDNAKNTLYLQMNSLRTEDTAVYYCAKETSRWGFDYWGQGTLVTVSS VL: SYVLTQLPSVSVTLRQTARITCGGDSIGSKNVYWHQQKLGQAPVLIIYDDSSRPSGIPERFSGANSGNTATLTISGALAEDEADYYCQVWDSSTSVFGGGTHLTVL ; wanted: its % Signal Inhibition Rep3
Solution: 68

Just for reference, patent US20250340659A1 is where these values come from.
